Test system: Bacillus cereus
Protocol: Antibacterial activity against Bacillus cereus ATCC 13061 after 20 hrs by broth microdilution method
Type: functional
Conditions: ATCC 13061, 20 h
Test Readout: MIC (µg/mL)
Write the number in µg/mL without appending the unit.

COc1cc(Nc2nnc(-c3ccc(S(=O)(=O)c4ccc(Br)cc4)cc3)s2)cc(OC)c1OC
16
O=C(NNC(=S)Nc1ccc(OC(F)(F)F)cc1)c1ccc(S(=O)(=O)c2ccc(Br)cc2)cc1
32

With those in mind, consider the next molecule.
What reported MIC corresponds to COc1cc(NC(=S)NNC(=O)c2ccc(S(=O)(=O)c3ccccc3)cc2)cc(OC)c1OC on Bacillus cereus?
16

###

Test system: Candida albicans
Protocol: Antifungal activity against Candida albicans ATCC 90028 after 24 hrs by broth microdilution method
Assay type: functional
Conditions: ATCC 90028, 24 h
The entries below are paired with their reported MIC.
Write the number in µg/mL without appending the unit.

Completed entries (count: 4):
O=S(=O)(c1ccc(Br)cc1)c1ccc(-c2nnc(Nc3ccc(OC(F)(F)F)cc3)s2)cc1
128
COc1cc(-n2c(-c3ccc(S(=O)(=O)c4ccccc4)cc3)n[nH]c2=S)cc(OC)c1OC
64
COc1cc(NC(=S)NNC(=O)c2ccc(S(=O)(=O)c3ccc(Br)cc3)cc2)cc(OC)c1OC
64
O=C(NNC(=S)Nc1ccc(OC(F)(F)F)cc1)c1ccc(S(=O)(=O)c2ccc(Br)cc2)cc1
64

With those in mind, consider the next compound.
What reported MIC corresponds to O=S(=O)(c1ccccc1)c1ccc(-c2nnc(Nc3ccc(OC(F)(F)F)cc3)s2)cc1 on Candida albicans?
64

###

System: Bacillus cereus
Protocol: Antibacterial activity against Bacillus cereus ATCC 13061 after 20 hrs by broth microdilution method
Assay type: functional
Conditions: ATCC 13061, 20 h
Test Readout: MIC (µg/mL)
Write the number in µg/mL without appending the unit.

Completed entries (count: 5):
COc1cc(Nc2nnc(-c3ccc(S(=O)(=O)c4ccccc4)cc3)s2)cc(OC)c1OC
16
O=S(=O)(c1ccc(Br)cc1)c1ccc(-c2n[nH]c(=S)n2-c2ccc(OC(F)(F)F)cc2)cc1
32
O=S(=O)(c1ccccc1)c1ccc(-c2nnc(Nc3ccc(OC(F)(F)F)cc3)s2)cc1
32
COc1cc(-n2c(-c3ccc(S(=O)(=O)c4ccc(Br)cc4)cc3)n[nH]c2=S)cc(OC)c1OC
8
O=S(=O)(c1ccc(Br)cc1)c1ccc(-c2nnc(Nc3ccc(OC(F)(F)F)cc3)s2)cc1
32

With those in mind, consider the next compound.
What reported MIC corresponds to O=S(=O)(c1ccccc1)c1ccc(-c2n[nH]c(=S)n2-c2ccc(OC(F)(F)F)cc2)cc1 on Bacillus cereus?
32

###

Test system: Bacillus cereus
Protocol: Antibacterial activity against Bacillus cereus ATCC 13061 after 20 hrs by broth microdilution method
Format: functional
Conditions: ATCC 13061, 20 h
Test Readout: MIC (µg/mL)
Write the number in µg/mL without appending the unit.

Completed entries (count: 2):
COc1cc(NC(=S)NNC(=O)c2ccc(S(=O)(=O)c3ccc(Br)cc3)cc2)cc(OC)c1OC
16
COc1cc(-n2c(-c3ccc(S(=O)(=O)c4ccccc4)cc3)n[nH]c2=S)cc(OC)c1OC
16

With those in mind, consider the next molecule.
Form field: reported MIC of O=C(NNC(=S)Nc1ccc(OC(F)(F)F)cc1)c1ccc(S(=O)(=O)c2ccccc2)cc1
32
